Test system: HepG2
Assay: GSK_TCMDC: Percent inhibition of human HepG2 cell line. Test compounds present at 10uM.
Format: functional
Parameter measured: Inhibition (%)
Reply with just the number (in %).

Record excerpt, results attached:
{"Molecule": "Cc1cc(F)ccc1-c1nc(Nc2ccncc2)c2ccn(C)c2n1", "Inhibition / %": 9}
{"Molecule": "COc1ccc2ncc(F)c(CCN3CC(O)C(CNCc4ccc(F)cc4)C3)c2n1.Cl (stereo not given)", "Inhibition / %": 38}
{"Molecule": "CCOc1ccc2c(=NN=Cc3ccccn3)cc(C)[nH]c2c1", "Inhibition / %": 19}
{"Molecule": "CC(C)(C)Oc1ccc(CC2NC3(C(=O)N(Cc4ccc(C(C)(C)C)cc4)c4ccccc43)C3C(=O)N(c4ccc(Br)cc4)C(=O)C23)cc1 (stereo not given)", "Inhibition / %": 24}
{"Molecule": "Br.C=CCc1cccc(OC)c1OCCCON1C(=N)N=C(N)NC1(C)C", "Inhibition / %": 58}
{"Molecule": "COc1ccc(C2CC(c3cccs3)=NN2C(=O)COc2cccc3c2CCCC3O)cc1OC (stereo not given)", "Inhibition / %": 5}

Incoming: Annotate the molecule Cc1ccc(C(=O)Nc2ccc(Nc3ccnc4cc(-c5ccccn5)ccc34)cc2O)cc1.Cl with its measured Inhibition.
Outgoing: 100

Incoming: Annotate the molecule Cc1cc2ncn(-c3nccc(NCc4cccnc4)n3)c2cc1C.O=C(O)C(F)(F)F with its measured Inhibition.
Outgoing: 0

Incoming: Annotate the molecule Cc1cc2nc(-c3ccc(C(=O)NCc4cccc(C(F)(F)F)c4)cc3)[nH]c2cc1C with its measured Inhibition.
Outgoing: 4

Incoming: Annotate the molecule CCOC(=O)c1ccc(OCc2ccc(-c3ccccc3)cc2)cc1 with its measured Inhibition.
Outgoing: 18

Where these numbers come from: ChEMBL document CHEMBL1157539
